Cited source: patent US8765763B2

- system-under-test: human CGRP receptor (Homo sapiens, UniProt O60894+Q16602)
- Construct: SK-N-MC membranes (˜20 μg protein) are incubated for 180 minutes at ambient temperature; endogenous in cells
- Sequence (Q16602 23-461): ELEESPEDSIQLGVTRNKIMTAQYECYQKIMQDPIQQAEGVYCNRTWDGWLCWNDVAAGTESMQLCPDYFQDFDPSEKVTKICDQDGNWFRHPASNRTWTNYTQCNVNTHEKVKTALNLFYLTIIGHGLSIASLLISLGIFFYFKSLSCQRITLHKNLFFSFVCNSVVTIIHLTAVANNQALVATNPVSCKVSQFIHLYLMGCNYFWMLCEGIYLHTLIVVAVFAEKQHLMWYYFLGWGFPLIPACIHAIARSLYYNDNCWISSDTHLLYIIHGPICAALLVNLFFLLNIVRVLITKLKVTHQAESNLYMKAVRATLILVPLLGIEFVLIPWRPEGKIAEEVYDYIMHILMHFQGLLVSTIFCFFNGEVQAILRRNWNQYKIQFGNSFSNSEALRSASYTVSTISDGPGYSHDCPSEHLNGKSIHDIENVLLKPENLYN
- Sequence (O60894 27-148): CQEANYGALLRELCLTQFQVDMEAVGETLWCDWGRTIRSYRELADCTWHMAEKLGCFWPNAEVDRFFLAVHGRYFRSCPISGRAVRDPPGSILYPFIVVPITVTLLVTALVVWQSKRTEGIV
- test-name: Binding studies with SK-N-MC cells (expressing the human CGRP receptor), 125I-iodotyrosyl-CGRP displacement on SK-N-MC membranes
- details: 50 pM 125I-iodotyrosyl-CGRP, 180 minutes at ambient temperature
pKi: −log10 of the molar value.
metric: pKi

// solved cases for pKi follow
O=C(CN1C(=O)C2(COCCOC2)NC[C@H]1c1cc(F)cc(F)c1)Nc1ccc2c(c1)C[C@]1(C2)C(=O)Nc2ncccc21 [Example 1b] : 8.75
CN1C[C@@H](c2cc(F)cc(F)c2)N(CC(=O)Nc2ccc3c(c2)C[C@@]2(C3)C(=O)Nc3ncccc32)C(=O)C12COCCOC2 [Example 17] : 10.52
CC(C)(C)OC(=O)N1C[C@@H](c2ccccc2)N(CC(=O)Nc2ccc3c(c2)C[C@@]2(C3)C(=O)Nc3ncccc32)C(=O)C12COCCOC2 [Example 20] : 9.02

a. O=C(CN1C(=O)C(C2CCOCC2)NCC1c1cc(F)cc(F)c1)Nc1ccc2c(c1)C[C@@]1(C2)C(=O)Nc2ncccc21 (single isomer, unassigned) [Example 15b]
b. O=C(CN1C(=O)C2(COCCOC2)NC[C@H]1c1ccc(F)cc1)Nc1ccc2c(c1)C[C@@]1(C2)C(=O)Nc2ncccc21 [Example 22]
Just curious, which one has the larger pKi reading, a or b ? Select an item and report its label. b
(b: 9.96, a: 9.41)

P. O=C(CN1C(=O)C(C2CCOCC2)NCC1c1cc(F)cc(F)c1)Nc1ccc2c(c1)C[C@@]1(C2)C(=O)Nc2ncccc21 (single isomer, unassigned) [Example 15a]
Q. O=C(CN1C(=O)C2(COCCOC2)NC[C@H]1c1cc(F)cc(F)c1)Nc1ccc2c(c1)C[C@@]1(C2)C(=O)Nc2ncccc21 [Example 1a]
I need your help: which of the pair P , Q has higher pKi? Field: selected label. Fill in the label of the entry you choose. Q
(Q: 10.52, P: 10.00)

###

- system-under-test: human CGRP receptor (Homo sapiens, UniProt O60894+Q16602)
- Construct: SK-N-MC membranes (˜20 μg protein) are incubated for 180 minutes at ambient temperature; endogenous in cells; host or cells: SK-N-MC cells (membranes)
- test-name: Binding studies with SK-N-MC cells (expressing the human CGRP receptor), 125I-iodotyrosyl-CGRP displacement on SK-N-MC membranes
- details: 50 pM 125I-iodotyrosyl-CGRP, 180 minutes at ambient temperature
pKi: −log10 of the molar value.
metric: pKi

O=C(CN1C(=O)[C@H](CC2CCCCCC2)NCC1c1cc(F)cc(F)c1)Nc1ccc2c(c1)C[C@@]1(C2)C(=O)Nc2ncccc21 (single isomer, unassigned) [Example 13 Diastereomer 2] : 9.15

P. O=C(CN1C(=O)[C@H](CC2CCCCCC2)NCC1c1cc(F)cc(F)c1)Nc1ccc2c(c1)C[C@@]1(C2)C(=O)Nc2ncccc21 (single isomer, unassigned) [Example 13 Diastereomer 1]
Q. O=C(CN1C(=O)C2(CCC3(CCOCC3)CC2)NC[C@H]1c1cc(F)cc(F)c1)Nc1ccc2c(c1)C[C@@]1(C2)C(=O)Nc2ncccc21
R. O=C(CN1C(=O)C2(COCCOC2)NC[C@H]1c1ccccc1)Nc1ccc2c(c1)C[C@@]1(C2)C(=O)Nc2ncccc21
S. O=C(CN1C(=O)[C@@H](CC2CCCCCC2)NCC1c1cc(F)cc(F)c1)Nc1ccc2c(c1)C[C@@]1(C2)C(=O)Nc2ncccc21 (single isomer, unassigned) [Example 16a]
Ascending by pKi, please: list the compounds accordingly. Provide the ranking by listing each label in its place in the requested order. S, P, R, Q

a. O=C(CN1C(=O)C2(COCCOC2)NCC1c1cc(F)cc(F)c1)Nc1cc2c(cn1)CC1(C2)C(=O)Nc2ncccc21 (stereo not drawn)
b. O=C(CN1C(=O)C2(COCCOC2)NCC1c1cccc(F)c1)Nc1ccc2c(c1)C[C@@]1(C2)C(=O)Nc2ncccc21 (stereo partly drawn)
c. O=C(CN1C(=O)[C@@H](CC2CCCCCC2)NCC1c1cc(F)cc(F)c1)Nc1ccc2c(c1)C[C@@]1(C2)C(=O)Nc2ncccc21 (single isomer, unassigned) [Example 16b]
Order the records by pKi, with each subsequent value no larger than the one before. # answer = labels listed in requested order b, c, a

a. COc1cccc(C2CNC3(COCCOC3)C(=O)N2CC(=O)Nc2ccc3c(c2)C[C@@]2(C3)C(=O)Nc3ncccc32)c1 (stereo partly drawn)
b. O=C(CN1C(=O)C2(COCCOC2)NC[C@H]1c1cc(F)cc(F)c1)Nc1cc2c(cc1Cl)CC1(C2)C(=O)Nc2ncccc21 (stereo partly drawn)
Choose between a and b : whose measured pKi value is numerically larger? State the label of the item chosen. a

1. O=C(CN1C(=O)C(CC2CCCCCC2)NCC1c1cc(F)cc(F)c1)Nc1ccc2c(c1)CC1(C2)C(=O)Nc2ncccc21 (stereo not drawn)
2. O=C(CN1C(=O)C2(COCCOC2)NC[C@H]1c1cc(F)cc(F)c1)Nc1cnc2c(c1)CC1(C2)C(=O)Nc2ncccc21 (stereo partly drawn)
// pick min by pKi: 1 , 2 Refer to your chosen entry by its label in the reply. 1
